Every entry's value here was drawn from paper PMC12610573.

Thermal Stability Tonset values for the compounds below.
EXPERIMENT DESCRIPTION: Thermogravimetric analysis (TGA), thermal stability
RUN PARAMETERS: TGA under nitrogen, 10 °C/min, decomposition onset
Numbers only; they are read as °C.

Answer with the recorded Thermal Stability Tonset of C[N+](C)(C)CCCl.O=C([O-])c1cccc(Cl)c1O [[CC][3-ClSal]] only.
136.1

Answer with the recorded Thermal Stability Tonset of C[N+](C)(C)CCCl [[CC][Cl], Chlormequat chloride, reference compound] only.
259.8

Answer with the recorded Thermal Stability Tonset of C[N+](C)(C)CCCl.O=C([O-])c1cc(Cl)ccc1O [[CC][5-ClSal]] only.
138.5

Answer with the recorded Thermal Stability Tonset of C[N+](C)(C)CCCl.O=C([O-])c1ccncc1 [[CC][IsoNic]] only.
85.3

Answer with the recorded Thermal Stability Tonset of C[N+](C)(C)CCCl.O=C([O-])c1ccc(Cl)cc1O [[CC][4-ClSal]] only.
137.2

Answer with the recorded Thermal Stability Tonset of C[N+](C)(C)CCCl.O=C([O-])c1ccccc1O [[CC][Sal], chlormequat salicylate] only.
93.3

Answer with the recorded Thermal Stability Tonset of C[N+](C)(C)CCCl.O=C([O-])c1cccnc1 [[CC][Nic]] only.
89.9
